assay: Cytotoxicity assay (MTT) in MRC‐5 cells; conditions: human
Parameter: CC50 at 5 day

1. Cc1cncc(C(=O)N2C[C@H]3CC[C@@H](C2)N3[C@H](c2cccc(F)c2)c2cn(CCc3ccsc3)nn2)c1 [Compound C5N17B]; > 100 µM

----------
biological target: SARS‐CoV‐2 M^pro (Severe acute respiratory syndrome coronavirus 2, UniProt P0DTD1); assay: SARS‐CoV‐2 main protease enzymatic assay (FRET inhibitor screening kit); assay type: biochemical; conditions: 5 μM; read-out: Inhibitionrate at @5μM
Below, each entry is listed with its recorded inhibition at 5 µM.
Parameter: inhibition at 5 µM

1) Cc1cncc(C(=O)N2C[C@H]3CC[C@@H](C2)N3[C@@H](c2cccc(F)c2)c2cn(CCc3ccsc3)nn2)c1 [Compound C5N17A]; 53.2%
2) O=C(c1cccnc1)N1CCN(C(c2cccc(F)c2)c2cn(CCc3ccsc3)nn2)CC1 (stereo not shown); 72.3%
3) Cc1cncc(C(=O)N2C[C@H]3CC[C@@H](C2)N3C(c2cccc(F)c2)c2cn(CC(N)=O)nn2)c1 (stereo partly shown); 100%
4) O=C(c1cccnc1)N1CCN(C(c2cccc(F)c2)c2cn(CCN3C(=O)c4ccccc4C3=O)nn2)CC1 (stereo not shown); 80.2%
5) Cc1cncc(C(=O)N2C[C@H]3CC[C@@H](C2)N3C(c2cccc(F)c2)c2cn(CCc3ccccc3)nn2)c1 (stereo partly shown); 93%
6) Cc1cncc(C(=O)N2C[C@H]3CC[C@@H](C2)N3C(c2cccc(F)c2)c2cn(CS(=O)(=O)c3ccccc3)nn2)c1 (stereo partly shown); 96.2%
7) Cc1cncc(C(=O)N2C[C@H]3CC[C@@H](C2)N3C(c2cccc(F)c2)c2cn(CCc3ccsc3)nn2)c1 (stereo partly shown); 98.7%
8) Cc1cncc(C(=O)N2C[C@H]3CC[C@@H](C2)N3[C@H](c2cccc(F)c2)c2cn(CCc3ccsc3)nn2)c1 [Compound C5N17B]; 99.6%
9) CNC(=O)Cn1cc(C(c2cccc(F)c2)N2[C@@H]3CC[C@H]2CN(C(=O)c2cncc(C)c2)C3)nn1 (stereo partly shown); 85.1%
10) Cc1cncc(C(=O)N2C[C@H]3CC[C@@H](C2)N3C(c2cccc(F)c2)c2cn(Cc3ccc([N+](=O)[O-])cc3)nn2)c1 (stereo partly shown); 68.8%
11) O=C(c1cccnc1)N1C[C@H]2CC[C@@H](C1)N2C(c1cccc(F)c1)c1cn(CCc2ccsc2)nn1 (stereo partly shown); 91.7%
12) COC(=O)CCCn1cc(C(c2cccc(F)c2)N2[C@@H]3CC[C@H]2CN(C(=O)c2cncc(C)c2)C3)nn1 (stereo partly shown); 87.6%
13) Cc1cncc(C(=O)N2C[C@H]3CC[C@@H](C2)N3C(c2cccc(F)c2)c2cccc(F)c2)c1 [AA‐625, reference compound]; 87.9%
14) Cc1cncc(C(=O)N2C[C@H]3CC[C@@H](C2)N3C(c2cccc(F)c2)c2cn(C[S+]([O-])c3ccccc3)nn2)c1 (stereo partly shown); 92.3%
15) Cc1cncc(C(=O)N2C[C@H]3CC[C@@H](C2)N3C(c2cccc(F)c2)c2cn(Cc3cccc([N+](=O)[O-])c3)nn2)c1 (stereo partly shown); 79.2%
16) Cc1cncc(C(=O)N2C[C@H]3CC[C@@H](C2)N3C(c2cccc(F)c2)c2cn(CCN3C(=O)c4ccccc4C3=O)nn2)c1 (stereo partly shown); 99.5%
17) O=C(c1cccnc1)N1C[C@H]2CC[C@@H](C1)N2C(c1cccc(F)c1)c1cn(CCN2C(=O)c3ccccc3C2=O)nn1 (stereo partly shown); 95.1%
18) Cc1cncc(C(=O)N2C[C@H]3CC[C@@H](C2)N3C(c2cccc(F)c2)c2cn(Cc3cccc(F)c3)nn2)c1 (stereo partly shown); 79.9%
19) Cc1cncc(C(=O)N2C[C@H]3CC[C@@H](C2)N3C(c2cccc(F)c2)c2cn(Cc3ccc(S(C)(=O)=O)cc3)nn2)c1 (stereo partly shown); 69%
